target: Cyclin-dependent kinase 1 (Homo sapiens)
Sequence (P06493 whole entry): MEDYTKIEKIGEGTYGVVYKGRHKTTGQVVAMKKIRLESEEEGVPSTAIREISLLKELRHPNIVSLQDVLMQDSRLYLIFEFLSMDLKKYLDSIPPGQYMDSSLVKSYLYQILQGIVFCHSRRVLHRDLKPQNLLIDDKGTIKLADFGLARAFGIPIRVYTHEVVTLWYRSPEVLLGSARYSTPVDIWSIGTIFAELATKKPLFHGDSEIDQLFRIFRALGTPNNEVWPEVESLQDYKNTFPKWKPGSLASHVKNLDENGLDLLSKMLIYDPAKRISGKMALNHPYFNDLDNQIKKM
TEST READOUT: IC50 (µM)
Write the number in µM without appending the unit.

Entry CNc1cc(Nc2cnc(C#N)c(O[C@H](C)CN(C)C)n2)ncc1-c1cnn(C)c1 : reported IC50 = ? 10

----------
molecular target: UniProt Q13936; experiment: Inhibition of human Cav1.2 at 10 uM
TEST READOUT: inhibition at 10 µM

API: value(readout=inhibition at 10 µM, system=UniProt Q13936) for record COc1cc(Nc2cnc(C#N)c(O[C@H](C)CN(C)C)n2)ncc1-c1cnn(C)c1 < 25%

----------
target: Voltage-gated inwardly rectifying potassium channel KCNH2 (Homo sapiens, UniProt Q12809)
Sequence (Q12809 whole entry): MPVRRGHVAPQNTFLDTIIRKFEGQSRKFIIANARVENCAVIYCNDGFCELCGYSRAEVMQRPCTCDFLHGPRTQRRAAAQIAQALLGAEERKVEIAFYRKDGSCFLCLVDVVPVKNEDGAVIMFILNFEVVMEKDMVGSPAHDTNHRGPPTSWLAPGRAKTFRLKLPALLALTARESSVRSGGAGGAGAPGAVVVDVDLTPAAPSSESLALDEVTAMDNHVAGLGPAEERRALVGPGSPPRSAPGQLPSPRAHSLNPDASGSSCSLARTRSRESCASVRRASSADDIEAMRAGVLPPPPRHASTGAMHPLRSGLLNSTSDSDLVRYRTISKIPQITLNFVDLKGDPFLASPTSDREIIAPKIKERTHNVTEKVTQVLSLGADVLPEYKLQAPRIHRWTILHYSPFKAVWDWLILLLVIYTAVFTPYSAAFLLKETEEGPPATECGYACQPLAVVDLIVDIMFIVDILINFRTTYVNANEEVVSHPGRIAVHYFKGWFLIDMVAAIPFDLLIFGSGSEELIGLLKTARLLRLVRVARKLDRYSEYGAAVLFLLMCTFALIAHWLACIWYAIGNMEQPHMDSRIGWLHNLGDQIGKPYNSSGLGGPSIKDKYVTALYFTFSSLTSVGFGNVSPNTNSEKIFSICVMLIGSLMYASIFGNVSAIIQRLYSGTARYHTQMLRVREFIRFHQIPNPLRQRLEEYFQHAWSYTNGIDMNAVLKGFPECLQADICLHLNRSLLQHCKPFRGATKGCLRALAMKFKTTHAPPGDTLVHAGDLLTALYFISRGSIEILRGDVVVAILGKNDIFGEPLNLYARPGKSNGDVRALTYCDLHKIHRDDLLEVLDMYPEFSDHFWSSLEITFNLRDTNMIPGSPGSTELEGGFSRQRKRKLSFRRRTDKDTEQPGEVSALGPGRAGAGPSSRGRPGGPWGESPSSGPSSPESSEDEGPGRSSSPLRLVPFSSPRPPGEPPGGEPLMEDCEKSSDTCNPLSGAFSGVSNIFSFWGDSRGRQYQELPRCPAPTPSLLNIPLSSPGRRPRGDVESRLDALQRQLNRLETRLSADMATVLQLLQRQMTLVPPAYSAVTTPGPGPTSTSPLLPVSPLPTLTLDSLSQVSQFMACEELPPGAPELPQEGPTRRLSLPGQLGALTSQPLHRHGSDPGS
Returns: string. Value is true if measured IC50 is below 5 µM, and false if it is greater than or equal to it.

Dear reviewer, please state whether CSc1cc(Nc2cnc(C#N)c(O[C@H](C)CN(C)C)n2)ncc1-c1cnn(C)c1 has IC50 strictly beneath 5 µM. false

Repeat with CNc1cc(Nc2cnc(C#N)c(O[C@H](C)CN(C)C)n2)ncc1-c1cnn(C)c1 false

Repeat with CNc1cc(Nc2cnc(C#N)c(O[C@H](C)CN(C)C)n2)ncc1Cl true

Repeat with COc1cc(Nc2cnc(C#N)c(O[C@@H]3CCN(C)C3)n2)ncc1-c1cnn(C)c1 false

Repeat with CNc1cc(Nc2cnc(C#N)c(O[C@H](C)CN(C)C)n2)ncc1C(F)(F)F true

Repeat with CNc1cc(Nc2cnc(C#N)c(O[C@H](C)CN(C)C)n2)ncc1C1CC1 false

Repeat with COC(=O)c1cnc(Nc2cnc(C#N)c(O[C@@H]3CCNC3)n2)cc1N(C)C false

----------
target: Nav1.5 (Homo sapiens); assay: Inhibition of human Nav1.5 at 10 uM
Sequence (Q14524 whole entry): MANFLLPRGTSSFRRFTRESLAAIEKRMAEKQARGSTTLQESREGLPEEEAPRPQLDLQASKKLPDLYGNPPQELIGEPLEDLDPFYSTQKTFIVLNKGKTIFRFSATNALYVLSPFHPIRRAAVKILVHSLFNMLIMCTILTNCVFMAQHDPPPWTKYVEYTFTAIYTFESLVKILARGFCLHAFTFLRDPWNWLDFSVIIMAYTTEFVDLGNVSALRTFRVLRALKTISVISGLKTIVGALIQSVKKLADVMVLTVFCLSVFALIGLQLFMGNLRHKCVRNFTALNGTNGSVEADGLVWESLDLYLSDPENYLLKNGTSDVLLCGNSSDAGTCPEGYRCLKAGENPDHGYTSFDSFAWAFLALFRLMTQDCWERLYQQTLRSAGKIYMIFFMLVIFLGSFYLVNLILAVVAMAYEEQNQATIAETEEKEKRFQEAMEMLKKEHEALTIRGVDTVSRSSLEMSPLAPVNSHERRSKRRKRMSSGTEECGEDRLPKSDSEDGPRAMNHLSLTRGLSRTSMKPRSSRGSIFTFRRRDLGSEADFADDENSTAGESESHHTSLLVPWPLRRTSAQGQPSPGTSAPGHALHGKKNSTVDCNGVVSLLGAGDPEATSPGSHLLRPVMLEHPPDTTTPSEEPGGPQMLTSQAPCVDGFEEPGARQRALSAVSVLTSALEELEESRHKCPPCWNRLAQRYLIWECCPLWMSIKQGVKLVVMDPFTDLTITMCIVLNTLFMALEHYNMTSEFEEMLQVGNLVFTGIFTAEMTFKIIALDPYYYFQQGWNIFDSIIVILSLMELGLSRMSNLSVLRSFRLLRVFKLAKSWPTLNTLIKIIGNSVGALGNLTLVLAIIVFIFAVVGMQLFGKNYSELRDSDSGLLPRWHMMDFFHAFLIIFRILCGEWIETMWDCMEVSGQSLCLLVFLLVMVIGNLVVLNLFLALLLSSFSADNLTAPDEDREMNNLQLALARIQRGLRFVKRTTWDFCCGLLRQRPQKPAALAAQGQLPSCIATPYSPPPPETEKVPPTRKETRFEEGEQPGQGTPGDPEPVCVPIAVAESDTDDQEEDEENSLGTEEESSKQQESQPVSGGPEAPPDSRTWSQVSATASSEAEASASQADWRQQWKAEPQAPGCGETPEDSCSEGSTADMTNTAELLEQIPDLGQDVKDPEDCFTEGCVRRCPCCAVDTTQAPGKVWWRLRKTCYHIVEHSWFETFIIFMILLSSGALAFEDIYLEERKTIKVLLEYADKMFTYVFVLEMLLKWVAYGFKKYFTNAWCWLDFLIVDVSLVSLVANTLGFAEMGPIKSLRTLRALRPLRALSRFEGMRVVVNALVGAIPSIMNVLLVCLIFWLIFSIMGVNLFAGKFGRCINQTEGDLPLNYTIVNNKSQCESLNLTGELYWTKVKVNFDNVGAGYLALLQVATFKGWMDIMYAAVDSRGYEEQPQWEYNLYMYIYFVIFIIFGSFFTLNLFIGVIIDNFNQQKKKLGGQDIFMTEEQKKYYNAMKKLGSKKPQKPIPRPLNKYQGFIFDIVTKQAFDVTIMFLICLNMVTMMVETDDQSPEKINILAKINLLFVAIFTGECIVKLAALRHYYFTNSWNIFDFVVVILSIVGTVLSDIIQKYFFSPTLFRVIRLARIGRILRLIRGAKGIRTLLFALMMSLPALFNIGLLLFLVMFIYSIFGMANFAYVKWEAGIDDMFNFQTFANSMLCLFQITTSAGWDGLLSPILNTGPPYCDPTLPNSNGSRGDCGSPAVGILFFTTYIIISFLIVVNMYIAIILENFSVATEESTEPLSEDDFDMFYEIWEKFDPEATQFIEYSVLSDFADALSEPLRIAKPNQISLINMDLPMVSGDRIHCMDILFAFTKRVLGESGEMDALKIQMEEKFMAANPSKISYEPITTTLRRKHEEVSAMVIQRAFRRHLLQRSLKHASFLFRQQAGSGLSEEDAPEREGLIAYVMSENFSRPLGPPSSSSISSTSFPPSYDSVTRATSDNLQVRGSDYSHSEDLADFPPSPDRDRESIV
TEST READOUT: inhibition at 10 µM

API: value(readout=inhibition at 10 µM, system=Nav1.5 (Homo sapiens)) for record COc1cc(Nc2cnc(C#N)c(O[C@H](C)CN(C)C)n2)ncc1-c1cnn(C)c1 < 25%

----------
The entries below are paired with their reported inhibition at 11 µM.
target: hERG (KCNH2) (Homo sapiens, UniProt Q12809); assay: Inhibition of human ERG overexpressed in HEK cells at 11 uM; type: cell-based, HEK293; details: HEK cells overexpressing human ERG

SMILES STRUCTURE	inhibition at 11 µM
COC(=O)c1cnc(Nc2cnc(C#N)c(O[C@@H]3CCNC3)n2)cc1OC	44%

Moving on to the next compound.
Entry CNc1cc(Nc2cnc(C#N)c(O[C@H](C)CN(C)C)n2)ncc1-c1cccc(F)c1 : reported inhibition at 11 µM = ? 103%

----------
The entries below are paired with their reported inhibition at 10 µM.
target: hERG (KCNH2) (Homo sapiens); test: Inhibition of human ERG overexpressed in HEK cells at 10 uM; format: cell-based, HEK293; conditions: HEK cells overexpressing human ERG
Write the number in % without appending the unit.

SMILES STRUCTURE	TEST READOUT	UNITS LABEL	VAL
CNc1cc(Nc2cnc(C#N)c(O[C@@H]3CCNC3)n2)ncc1-c1cnn(C)c1	inhibition at 10 µM	%	22

API: value(readout=inhibition at 10 µM, system=hERG (KCNH2) (Homo sapiens)) for record CNc1cc(Nc2cnc(C#N)c(O[C@H](C)CN(C)C)n2)ncc1C#CC(C)(C)O 59

Repeat with CNc1ccnc(Nc2cnc(C#N)c(O[C@H](C)CN(C)C)n2)c1 71

Repeat with COC(=O)c1cnc(Nc2cnc(C#N)c(O[C@@H]3CCNC3)n2)cc1SC 25

Repeat with CNc1cc(Nc2cnc(C#N)c(O[C@H]3CCNC3)n2)ncc1-c1cnn(C)c1 37
